test: Cmax in dog at 0.003 mg/kg/day, sc administered as infusion after 8 hrs; format: ADME, organism-based, Canis lupus familiaris; parameters: dose 0.003 mg/kg/day, route subcutaneous; conditions: in vivo
readout: Cmax (ng/mL)
Numeric answer only, unit ng/mL assumed.

Q. Please supply the value of reported Cmax for the item CC[C@](C)(NC(=O)[C@H]1C[C@H](O)CN1C(=O)[C@H](CO)NC(=O)c1c[nH]cn1)C(=O)N[C@@H](Cc1ccncc1)C(=O)N[C@@H](CC1CCCCC1)C(=O)N[C@@H](CC(C)(C)C)C(=O)N[C@@H](CC(N)=O)C(=O)N[C@@H](CCCCN)C(=O)NC(C)(C)C(=O)N[C@H](C(=O)N[C@@H](CCCNC(=N)N)C(=O)N[C@@H](CCC(N)=O)C(=O)N[C@@H](CCCNC(=N)N)C(=O)N[C@@H](CC1CCCCC1)C(N)=O)[C@@H](C)O
A. 0.18

###

assay: Cmax in Beagle dog at 0.01 mg/kg, sc; format: ADME, organism-based, Canis lupus familiaris; set-up: dose 0.01 mg/kg, route subcutaneous; settings: in vivo
readout: Cmax (ng/mL)
Numeric answer only, unit ng/mL assumed.

Q. Please supply the value of reported Cmax for the item CC[C@](C)(NC(=O)[C@H]1C[C@H](O)CN1C(=O)[C@H](CO)NC(=O)c1c[nH]cn1)C(=O)N[C@@H](Cc1ccncc1)C(=O)N[C@@H](CC1CCCCC1)C(=O)N[C@@H](CC(C)(C)C)C(=O)N[C@@H](CC(N)=O)C(=O)N[C@@H](CCCCN)C(=O)NC(C)(C)C(=O)N[C@H](C(=O)N[C@@H](CCCNC(=N)N)C(=O)N[C@@H](CCC(N)=O)C(=O)N[C@@H](CCCNC(=N)N)C(=O)N[C@@H](CC1CCCCC1)C(N)=O)[C@@H](C)O
A. 2.9

###

assay: Drug uptake in DIO C57BL/6J mouse serum at 0.01 mg/kg/day, sc for 2 weeks; type: ADME, organism-based; settings: read-out: Drug uptake
readout: concentration at 336 h
Param answer (str): number followed by unit.

Q. Please supply the value of reported concentration at 336 h for the item CC[C@](C)(NC(=O)[C@H]1C[C@H](O)CN1C(=O)[C@H](CO)NC(=O)c1c[nH]cn1)C(=O)N[C@@H](Cc1ccncc1)C(=O)N[C@@H](CC1CCCCC1)C(=O)N[C@@H](CC(C)(C)C)C(=O)N[C@@H](CC(N)=O)C(=O)N[C@@H](CCCCN)C(=O)NC(C)(C)C(=O)N[C@H](C(=O)N[C@@H](CCCNC(=N)N)C(=O)N[C@@H](CCC(N)=O)C(=O)N[C@@H](CCCNC(=N)N)C(=O)N[C@@H](CC1CCCCC1)C(N)=O)[C@@H](C)O
A. 0.225 ng/mL

###

assay: Tmax in Beagle dog at 0.01 mg/kg, sc; format: ADME, organism-based, Canis lupus familiaris; details: in vivo
readout: Tmax (min)
Numeric answer only, unit min assumed.

Q. Please supply the value of reported Tmax for the item CC[C@](C)(NC(=O)[C@H]1C[C@H](O)CN1C(=O)[C@H](CO)NC(=O)c1c[nH]cn1)C(=O)N[C@@H](Cc1ccncc1)C(=O)N[C@@H](CC1CCCCC1)C(=O)N[C@@H](CC(C)(C)C)C(=O)N[C@@H](CC(N)=O)C(=O)N[C@@H](CCCCN)C(=O)NC(C)(C)C(=O)N[C@H](C(=O)N[C@@H](CCCNC(=N)N)C(=O)N[C@@H](CCC(N)=O)C(=O)N[C@@H](CCCNC(=N)N)C(=O)N[C@@H](CC1CCCCC1)C(N)=O)[C@@H](C)O
A. 36

###

experiment: Cmax in dog at 0.01 mg/kg, sc administered as bolus; format: ADME, organism-based, Canis lupus familiaris; design: dose 0.01 mg/kg, route subcutaneous; settings: in vivo
readout: Cmax (ng/mL)
Numeric answer only, unit ng/mL assumed.

Q. Please supply the value of reported Cmax for the item CC[C@](C)(NC(=O)[C@H]1C[C@H](O)CN1C(=O)[C@H](CO)NC(=O)c1c[nH]cn1)C(=O)N[C@@H](Cc1ccncc1)C(=O)N[C@@H](CC1CCCCC1)C(=O)N[C@@H](CC(C)(C)C)C(=O)N[C@@H](CC(N)=O)C(=O)N[C@@H](CCCCN)C(=O)NC(C)(C)C(=O)N[C@H](C(=O)N[C@@H](CCCNC(=N)N)C(=O)N[C@@H](CCC(N)=O)C(=O)N[C@@H](CCCNC(=N)N)C(=O)N[C@@H](CC1CCCCC1)C(N)=O)[C@@H](C)O
A. 2.9
